src = patent US20050227306A1

- TARGET_DESC: TEV protease (Tobacco etch virus, UniProt P04517)
- Construct: TEV Protease, 0.5 μM
- Sequence (P04517 2038-2279): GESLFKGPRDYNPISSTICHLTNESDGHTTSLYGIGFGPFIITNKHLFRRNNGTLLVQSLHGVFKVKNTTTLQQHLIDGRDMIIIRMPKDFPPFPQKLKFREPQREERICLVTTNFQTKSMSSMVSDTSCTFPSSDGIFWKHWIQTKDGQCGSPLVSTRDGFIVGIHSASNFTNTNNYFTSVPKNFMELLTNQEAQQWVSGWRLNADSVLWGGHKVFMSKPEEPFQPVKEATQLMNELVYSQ
- MEASUREMENT_DESCRIPTION: Effect of additives on TEV protease cleavage measured by fluorescence polarization
- Type: biochemical
- CONDITION_CONTEXT: At3g16990 in pVP15 substrate, 0.5 μM TEV protease, pH 8.0, ca. 22° C.; increasing additive concentrations
MEASURE: Effect of additive on fractional completion of the TEV protease cleavage reaction

* Cl.N=C(N)N [guanidium hydrochloride] | considerable inhibition
* [Ca+2].[Cl-].[Cl-] [CaCl2, calcium chloride] | little or no effect
* C[S+](C)[O-] [DMSO, dimethylsulfoxide] | little or no effect
* N=C(N)NCCC[C@H](N)C(=O)O | considerable inhibition
* OCCO | considerable inhibition
* NC(N)=O | considerable inhibition
* CCCCCCCCCCCCOS(=O)(=O)[O-].[Na+] [SDS, sodium dodecylsulfate] | considerable inhibition
* OC[C@H]1O[C@@](CO)(O[C@H]2O[C@H](CO)[C@@H](O)[C@H](O)[C@H]2O)[C@@H](O)[C@@H]1O | little or no effect
* NCC(=O)O | little or no effect
* [Cl-].[Na+] [NaCl, sodium chloride] | little or no effect
* OCC(O)CO | little or no effect
* CCO | considerable inhibition
